In this section we review reported Kd values for a set of molecules.
- target-under-test: YgdH (Escherichia coli, UniProt P0ADR8)
- Sequence (P0ADR8 whole entry): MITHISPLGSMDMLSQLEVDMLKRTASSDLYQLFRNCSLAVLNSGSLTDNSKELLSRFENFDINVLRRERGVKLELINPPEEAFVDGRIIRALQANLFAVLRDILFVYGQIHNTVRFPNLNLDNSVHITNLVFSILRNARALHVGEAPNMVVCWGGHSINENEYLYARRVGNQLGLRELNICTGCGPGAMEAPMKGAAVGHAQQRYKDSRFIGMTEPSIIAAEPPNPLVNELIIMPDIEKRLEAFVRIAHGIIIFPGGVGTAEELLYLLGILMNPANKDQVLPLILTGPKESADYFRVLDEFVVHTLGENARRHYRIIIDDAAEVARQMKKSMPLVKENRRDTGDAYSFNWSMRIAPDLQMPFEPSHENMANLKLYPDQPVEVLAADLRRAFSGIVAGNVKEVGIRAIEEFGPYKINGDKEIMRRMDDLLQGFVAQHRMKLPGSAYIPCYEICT
- test-details: DRaCALA binding and Kd determination, purified YgdH
- Parameters: species or system E. coli
- assay-context: DRaCALA, with 1.5 mM Mg2+; read-out: apparent Kd, YgdH + 1.5 mM Mg2+
Please give a number only; it is taken to be in µM.

| molecule | Kd / µM |
| --- | --- |
| Nc1nc2c(ncn2[C@@H]2O[C@H](COP(=O)(O)OP(=O)(O)OP(=O)(O)O)[C@@H](OP(=O)(O)OP(=O)(O)O)[C@H]2O)c(=O)[nH]1 [pppGpp, guanosine pentaphosphate] | 37.2 |

Now turn to the next molecule.
INPUT: Consider the molecule shown here: Nc1nc2c(ncn2[C@@H]2O[C@H](COP(=O)(O)OP(=O)(O)O)[C@@H](OP(=O)(O)OP(=O)(O)O)[C@H]2O)c(=O)[nH]1 [ppGpp, guanosine tetraphosphate] What is its recorded Kd?
OUTPUT: 24.4

====

pKd tested on DerG1 (residues 2 to 184) (Escherichia coli): recorded values
Sequence (P0A6P5 2-184): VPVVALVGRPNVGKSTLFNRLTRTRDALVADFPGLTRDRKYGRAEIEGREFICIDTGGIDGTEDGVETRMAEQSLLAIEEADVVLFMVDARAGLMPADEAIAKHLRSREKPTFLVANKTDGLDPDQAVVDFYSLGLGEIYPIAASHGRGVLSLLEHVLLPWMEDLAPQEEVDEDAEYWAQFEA
Please report pKd as the negative decimal logarithm of the molar concentration, giving only the number.

| compound | readout-kind | numeric-readout |
| --- | --- | --- |
| Nc1nc2c(ncn2[C@@H]2O[C@H](COP(=O)(O)OP(=O)(O)O)[C@@H](OP(=O)(O)OP(=O)(O)O)[C@H]2O)c(=O)[nH]1 [ppGpp, guanosine tetraphosphate] | pKd | 5.23 |

Now look at this one.
INPUT: Fill blank: measured pKd of the compound Nc1nc2c(ncn2[C@@H]2O[C@H](COP(=O)(O)OP(=O)(O)OP(=O)(O)O)[C@@H](OP(=O)(O)OP(=O)(O)O)[C@H]2O)c(=O)[nH]1 [pppGpp, guanosine pentaphosphate] is ____.
OUTPUT: 5.33

====

Below, each entry is listed with its recorded Kd.
- target-under-test: Hpt (Escherichia coli)
- Sequence (P0A9M2 whole entry): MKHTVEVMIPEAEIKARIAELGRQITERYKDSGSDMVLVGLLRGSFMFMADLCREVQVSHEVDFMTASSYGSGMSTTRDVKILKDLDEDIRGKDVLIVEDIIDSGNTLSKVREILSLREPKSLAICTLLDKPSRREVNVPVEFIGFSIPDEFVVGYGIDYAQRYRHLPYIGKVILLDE
Output spec: scalar in µM, unitless text.

| molecule | Kd / µM |
| --- | --- |
| Nc1nc2c(ncn2[C@@H]2O[C@H](COP(=O)(O)OP(=O)(O)O)[C@@H](OP(=O)(O)OP(=O)(O)O)[C@H]2O)c(=O)[nH]1 [ppGpp, guanosine tetraphosphate] | 6.1 |

Please look at the following molecule next.
INPUT: Recorded Kd of Nc1nc2c(ncn2[C@@H]2O[C@H](COP(=O)(O)OP(=O)(O)OP(=O)(O)O)[C@@H](OP(=O)(O)OP(=O)(O)O)[C@H]2O)c(=O)[nH]1 [pppGpp, guanosine pentaphosphate] , please.
OUTPUT: 6.2

====

Reported Kd, RF3 (PrfC) (Escherichia coli, UniProt P0A7I4).
Write down the numeric answer in µM and omit the unit.

Please review the following examples before continuing.
| compound | target-under-test | uom | Kd |
| --- | --- | --- | --- |
| Nc1nc2c(ncn2[C@@H]2O[C@H](COP(=O)(O)OP(=O)(O)OP(=O)(O)O)[C@@H](OP(=O)(O)OP(=O)(O)O)[C@H]2O)c(=O)[nH]1 [pppGpp, guanosine pentaphosphate] | RF3 (PrfC) (Escherichia coli, UniProt P0A7I4) | µM | 15 |
| Nc1nc2c(ncn2[C@@H]2O[C@H](COP(=O)(O)OP(=O)(O)OP(=O)(O)O)[C@@H](O)[C@H]2O)c(=O)[nH]1 [GTP] | RF3 (PrfC) (Escherichia coli, UniProt P0A7I4) | µM | 29.3 |

INPUT: So what Kd did Nc1nc2c(ncn2[C@@H]2O[C@H](COP(=O)(O)OP(=O)(O)O)[C@@H](OP(=O)(O)OP(=O)(O)O)[C@H]2O)c(=O)[nH]1 [ppGpp, guanosine tetraphosphate] get with RF3 (PrfC) (Escherichia coli, UniProt P0A7I4)?
OUTPUT: 0.82

====

Hi! I'm sharing some pKd results obtained with SaDer (Staphylococcus aureus).
Sequence (A6QH24 whole entry): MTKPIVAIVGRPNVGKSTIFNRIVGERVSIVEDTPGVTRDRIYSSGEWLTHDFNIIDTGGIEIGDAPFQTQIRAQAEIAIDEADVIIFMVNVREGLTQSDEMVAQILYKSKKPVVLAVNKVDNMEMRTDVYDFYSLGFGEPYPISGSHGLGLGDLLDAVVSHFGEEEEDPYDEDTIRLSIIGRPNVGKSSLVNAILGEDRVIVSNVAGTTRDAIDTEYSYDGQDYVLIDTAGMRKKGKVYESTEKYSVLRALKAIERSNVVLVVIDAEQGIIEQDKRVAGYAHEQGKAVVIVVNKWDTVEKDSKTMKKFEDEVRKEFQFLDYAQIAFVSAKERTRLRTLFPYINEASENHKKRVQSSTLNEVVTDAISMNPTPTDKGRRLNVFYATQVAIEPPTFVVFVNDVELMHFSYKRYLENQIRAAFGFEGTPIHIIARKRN
// pKd: -log10(molar conc.)

| compound | pKd |
| --- | --- |
| Nc1nc2c(ncn2[C@@H]2O[C@H](COP(=O)(O)OP(=O)(O)OP(=O)(O)O)[C@@H](O)[C@H]2O)c(=O)[nH]1 | 5.46 |

INPUT: I would be grateful if you could share the reported pKd for Nc1nc2c(ncn2[C@@H]2O[C@H](COP(=O)(O)OP(=O)(O)O)[C@@H](OP(=O)(O)OP(=O)(O)O)[C@H]2O)c(=O)[nH]1 [ppGpp, guanosine tetraphosphate] .
OUTPUT: 5.42

====

- target-under-test: TrmE (Escherichia coli, UniProt P25522)
- Sequence (P25522 whole entry): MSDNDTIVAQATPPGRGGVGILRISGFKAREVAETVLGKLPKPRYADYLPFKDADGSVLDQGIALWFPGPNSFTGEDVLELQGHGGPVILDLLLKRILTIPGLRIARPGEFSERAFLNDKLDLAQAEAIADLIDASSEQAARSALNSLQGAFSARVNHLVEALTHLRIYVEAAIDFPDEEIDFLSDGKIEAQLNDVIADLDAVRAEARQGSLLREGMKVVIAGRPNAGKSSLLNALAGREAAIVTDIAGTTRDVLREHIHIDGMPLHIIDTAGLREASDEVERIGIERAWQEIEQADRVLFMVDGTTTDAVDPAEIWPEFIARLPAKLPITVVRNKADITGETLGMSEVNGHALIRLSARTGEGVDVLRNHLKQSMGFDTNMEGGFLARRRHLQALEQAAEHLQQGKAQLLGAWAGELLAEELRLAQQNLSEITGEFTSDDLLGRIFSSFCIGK
- test-details: DRaCALA Kd determination, purified TrmE
- assay-context: in the presence of magnesium, read-out: apparent Kd, TrmE
In this section, each of the molecules is paired with its reported pKd.
pKd is defined as minus the log10 of a concentration measured in mol/L.

Before answering, review these 2 worked examples.
| molecule | target-under-test | numeric-readout |
| --- | --- | --- |
| Nc1nc2c(ncn2[C@@H]2O[C@H](COP(=O)(O)OP(=O)(O)O)[C@@H](OP(=O)(O)OP(=O)(O)O)[C@H]2O)c(=O)[nH]1 [ppGpp, guanosine tetraphosphate] | TrmE (Escherichia coli, UniProt P25522) | 5.77 |
| Nc1nc2c(ncn2[C@@H]2O[C@H](COP(=O)(O)OP(=O)(O)OP(=O)(O)O)[C@@H](OP(=O)(O)OP(=O)(O)O)[C@H]2O)c(=O)[nH]1 [pppGpp, guanosine pentaphosphate] | TrmE (Escherichia coli, UniProt P25522) | 5.66 |

INPUT: Field: pKd (TrmE (Escherichia coli, UniProt P25522)). Entry: Nc1nc2c(ncn2[C@@H]2O[C@H](COP(=O)(O)OP(=O)(O)OP(=O)(O)O)[C@@H](O)[C@H]2O)c(=O)[nH]1
OUTPUT: 5.34
